- assayed-target: T1, human CD47-Fc fusion protein (R&D systems) (human, UniProt Q08722 19-141)
- T1 construct: Bought (R&D systems); also called Fc-tagged CD47; not shown: Fc part of the bought fusion protein
- method-notes: ELISA, plate coated with human CD47-Fc
recorded-metric: pKd
Please keep in mind that pKd is minus log10 of the molar concentration; only the number is needed.

binder	pKd
5F9/15D3 (5F9 heavy chain with 15D3 light chain) (antibody, human IgG1, V domains shown, Light chain shuffle construct; human IgG1 / kappa constant regions) VH: QVQLVQSGAEVKKPGASVKVSCKASGYTFTNYNMHWVRQAPGQRLEWMGTIYPGNDDTSYNQKFKDRVTITADTSASTAYMELSSLRSEDTAVYYCARGGYRAMDYWGQGTLVTVSS VL: DVLMTQTPLSLPVSLGDQASISCRSSQSIVHSTGNTYLEWYLQKPGQSPKLLIYKVSNRFSGVPDRFSGSGSGTDFTLKISRLEAEDLGVYYCFQGSHFPRTFGGGTRLEIK	9.59
5F9/MRK16 (anti-CD47 antibody with two 5F9 heavy chains and two MRK16 light chains) (antibody, human IgG1, V domains shown, Human IgG1 / kappa constant regions; also called KT14/MRK16 monoclonal; KT14_MRK16) VH: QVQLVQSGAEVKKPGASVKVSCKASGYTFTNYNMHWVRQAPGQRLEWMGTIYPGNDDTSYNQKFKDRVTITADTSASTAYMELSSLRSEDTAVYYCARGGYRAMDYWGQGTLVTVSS VL: DVLMTQTPVSLSVSLGDQASISCRSSQSIVHSTGNTYLEWYLQKPGQSPKLLIYKISNRFSGVPDRFSGSGSGTDFTLKISRVEAEDLGVYYCFQASHFPRTFGGGTKLEIK	9.77
anti-CD47 antibody 5F9 (antibody, human IgG1, V domains shown, Variable regions cloned on human IgG1 / human kappa constant regions; also called 5F9/5F9; KT14) VH: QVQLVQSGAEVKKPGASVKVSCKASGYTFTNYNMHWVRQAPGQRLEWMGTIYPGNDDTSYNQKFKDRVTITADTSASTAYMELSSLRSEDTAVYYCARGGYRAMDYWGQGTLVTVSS VL: DIVMTQSPLSLPVTPGEPASISCRSSQSIVYSNGNTYLGWYLQKPGQSPQLLIYKVSNRFSGVPDRFSGSGSGTDFTLKISRVEADVGVYYCFQGSHVPYTFGQGTKLEIK	11.71

Entry 5F9/UIC2 (5F9 heavy chain with UIC2 light chain) (antibody, human IgG1, V domains shown, Light chain shuffle construct; human IgG1 / kappa constant regions) VH: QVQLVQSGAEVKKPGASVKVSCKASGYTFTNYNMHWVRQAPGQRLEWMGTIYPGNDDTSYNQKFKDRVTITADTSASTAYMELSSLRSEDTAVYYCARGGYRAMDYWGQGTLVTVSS VL: DVVMTQTPRSLPVSLGDQASISCRSSQSLLHSNGNTYLHWYLQKPGQSPKLLIYKVSNRFSGVPDRFSGSGSGTDFTLKISRVEAEDLGVYFCSQSTHIPPWTFGGGTKLDIK ; pKd = 8.20

Entry 5F9/M89 (5F9 heavy chain with M89 light chain) (antibody, human IgG1, V domains shown, Light chain shuffle construct; human IgG1 / kappa constant regions) VH: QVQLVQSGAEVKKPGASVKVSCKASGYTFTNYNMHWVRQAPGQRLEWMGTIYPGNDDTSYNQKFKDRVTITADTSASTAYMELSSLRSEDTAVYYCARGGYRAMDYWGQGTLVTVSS VL: EIVLTQSPATLSLSPGERATLSCRASQSVGGSYLAWYQQKPGQAPRLLIYGASRRATGIPARFSGSGSGTDFTLTISSLQPEDFASYFCQQTNTFPLTFGGGTKVEIK ; pKd = 5.82

Cited source: patent US20220204627A1
